Ki tested on Apoptosis regulator Bcl-2 (Homo sapiens, UniProt P10415): recorded values
Sequence (P10415 whole entry): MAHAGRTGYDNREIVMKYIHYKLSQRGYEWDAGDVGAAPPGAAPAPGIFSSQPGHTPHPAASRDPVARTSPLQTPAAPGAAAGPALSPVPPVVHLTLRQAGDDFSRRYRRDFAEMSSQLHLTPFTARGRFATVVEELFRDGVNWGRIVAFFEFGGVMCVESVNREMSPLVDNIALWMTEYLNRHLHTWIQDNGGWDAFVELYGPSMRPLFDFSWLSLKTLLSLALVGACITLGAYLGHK
Report only the number, with the unit µM understood.

Cc1ccccc1N1C(=O)/C(=C/c2cccc(OCc3ccc(C(=O)O)cc3)c2)SC1=S : 3.1

# ---- query molecule ----
Find Ki (Apoptosis regulator Bcl-2 (Homo sapiens, UniProt P10415)) for the entry Cc1ccc(S(=O)(=O)NC(=O)[C@H](Cc2ccccc2)N2C(=O)/C(=C/c3ccc(-c4ccccc4)cc3)SC2=S)cc1
0.5

* * *

Molecular target: Induced myeloid leukemia cell differentiation protein Mcl-1 (Homo sapiens, UniProt Q07820)
Sequence (Q07820 whole entry): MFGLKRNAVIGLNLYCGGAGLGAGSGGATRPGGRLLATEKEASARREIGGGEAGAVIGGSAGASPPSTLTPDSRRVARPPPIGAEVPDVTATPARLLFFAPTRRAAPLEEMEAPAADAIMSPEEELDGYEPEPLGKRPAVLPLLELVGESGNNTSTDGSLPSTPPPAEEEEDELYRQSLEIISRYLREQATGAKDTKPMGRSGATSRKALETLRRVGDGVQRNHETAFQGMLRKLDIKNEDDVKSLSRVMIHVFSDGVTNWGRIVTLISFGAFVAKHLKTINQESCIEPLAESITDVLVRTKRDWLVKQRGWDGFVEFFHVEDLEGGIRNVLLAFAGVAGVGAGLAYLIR
Test: Inhibition of Mcl-1 (unknown origin) by fluorescence polarization assay
Listing: pKi of selected compounds
Here pKi is given on a logarithmic scale as minus log10 of the concentration in mol/L.

O=C(O)c1ccc(COc2ccc(/C=C3\SC(=S)N(c4ccc(Br)cc4)C3=O)cc2)cc1 : 6.15

Consider the compound COc1ccccc1N1C(=O)/C(=C/c2ccc(OCc3ccc(C(=O)O)cc3)cc2)SC1=S and give its measured pKi.
5.41

Consider the compound Cc1cccc(C)c1N1C(=O)/C(=C/c2ccc(OCc3ccc(C(=O)O)cc3)cc2)SC1=S and give its measured pKi.
6.14

Consider the compound Cc1ccccc1N1C(=O)/C(=C/c2cccc(OCc3ccc(C(=O)O)cc3)c2)SC1=S and give its measured pKi.
5.49

Consider the compound Cc1cc2c(C(C)C)c(O)c(O)c(C=O)c2c(O)c1-c1c(C)cc2c(C(C)C)c(O)c(O)c(C=O)c2c1O and give its measured pKi.
6.51

Consider the compound O=C(O)c1ccc(COc2ccc(/C=C3\SC(=S)N(c4ccc(I)cc4)C3=O)cc2)cc1 and give its measured pKi.
5.80

Consider the compound COc1ccccc1N1C(=O)/C(=C/c2cccc(OCc3ccc(C(=O)O)cc3)c2)SC1=S and give its measured pKi.
5.43

Consider the compound Cc1ccc(S(=O)(=O)NC(=O)[C@H](Cc2ccccc2)N2C(=O)/C(=C/c3ccc(-c4ccccc4)cc3)SC2=S)cc1 and give its measured pKi.
6.54
